biological target: c-Cbl (Homo sapiens (Human)); experiment: C-Cbl LCK Ub TR-FRET assay (c-cbl Lck HTRF); type: biochemical
Sequence (P22681 47-435): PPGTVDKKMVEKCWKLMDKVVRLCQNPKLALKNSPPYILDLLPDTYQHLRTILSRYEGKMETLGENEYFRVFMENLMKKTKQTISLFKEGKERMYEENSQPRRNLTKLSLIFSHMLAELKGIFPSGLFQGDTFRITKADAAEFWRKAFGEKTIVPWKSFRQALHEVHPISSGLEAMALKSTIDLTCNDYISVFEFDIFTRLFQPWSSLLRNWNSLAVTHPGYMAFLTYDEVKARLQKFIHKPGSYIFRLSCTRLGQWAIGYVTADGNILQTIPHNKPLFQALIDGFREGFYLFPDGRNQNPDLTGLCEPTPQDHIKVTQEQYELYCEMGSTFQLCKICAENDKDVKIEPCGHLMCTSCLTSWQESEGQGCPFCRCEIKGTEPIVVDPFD
Structures can show the parent of a compound that is named as a salt.
# note: boundary value 100 nM maps to NO; IC50 below it maps to YES

CO[C@@H]1CCN(Cc2cc3c(c(C(F)(F)F)c2)CN(c2cccc(C4([C@@H](F)c5nncn5C)COC4)c2)C3=O)C1 [Compound 47] : NO
Cn1cnnc1CC1(c2cc(NCCC(F)(F)F)nc(N3Cc4c(cccc4C(F)(F)F)C3=O)c2)COC1 [Compound 488] : NO
Cc1cnnn1CC1(c2cccc(N3Cc4c(cc(CN5CCN(C)C[C@@H]5C(C)C)cc4C(F)(F)F)C3=O)c2)COC1 [Compound 258] : YES

Ask: Report whether reported IC50 is lower than 100 nM (strictly) for Cn1cnnc1CC1(c2cccc(N3Cc4c(cc(CNC56CC(C5)C6)cc4C(F)(F)F)C3=O)c2)CC(F)(F)C1 [Compound 356]
Result: YES

Ask: Report whether reported IC50 is lower than 100 nM (strictly) for COCC1(F)CN(Cc2cc3c(c(C(F)(F)F)c2)CN(c2cccc(C4([C@@H](F)c5nncn5C)COC4)c2)C3=O)C1 [Compound 135]
Result: NO

Ask: Report whether reported IC50 is lower than 100 nM (strictly) for CC(C)[C@@H]1CN(Cc2cc3c(c(C(F)(F)F)c2)CN(c2cccc(C4([C@@H](F)c5nncn5C)COC4)c2)C3=O)CCN1C [Compound 406]
Result: YES

Ask: Report whether reported IC50 is lower than 100 nM (strictly) for Cn1cc(-c2cc(C3(Cc4nncn4C)CCC3)cc(N3Cc4c(cc(CNC5(C)CCC5)cc4C(F)(F)F)C3=O)n2)cn1 [Compound 327]
Result: YES

Ask: Report whether reported IC50 is lower than 100 nM (strictly) for C[C@@H](NC1(C)CCC1)c1cc2c(c(C(F)(F)F)c1)CN(c1cccc(C3([C@@H](F)c4nncn4C)COC3)c1)C2=O [Compound 247]
Result: YES

Ask: Report whether reported IC50 is lower than 100 nM (strictly) for C#Cc1cccc2c1CN(c1cccc(C3([C@@H](F)c4nncn4C)COC3)c1)C2=O [Compound 211]
Result: NO

Ask: Report whether reported IC50 is lower than 100 nM (strictly) for CC(C)CNCc1cc2c(c(C(F)(F)F)c1)CN(c1cccc(C3([C@@H](F)c4nncn4C)CC(F)(F)C3)c1)C2=O [Compound 451]
Result: YES

Ask: Report whether reported IC50 is lower than 100 nM (strictly) for C[C@@H]1CN(Cc2cc3c(c(C(F)(F)F)c2)CN(c2cccc(C4(Cc5nncn5C)CC(F)(F)C4)c2)C3=O)CCN1 [Compound 424]
Result: YES

Ask: Report whether reported IC50 is lower than 100 nM (strictly) for CC(C)[C@H]1CN(CCF)CCN1Cc1cc2c(c(C(F)(F)F)c1)CN(c1cccc(C3([C@@H](F)c4nncn4C)COC3)c1)C2=O [Compound 197]
Result: YES

Ask: Report whether reported IC50 is lower than 100 nM (strictly) for CC[C@H]1CN(Cc2cc3c(c(C(F)(F)F)c2)CN(c2cccc(C4(Cc5nncn5C)CC(F)(F)C4)c2)C3=O)CCN1 [Compound 427]
Result: YES

Ask: Report whether reported IC50 is lower than 100 nM (strictly) for Cn1cnnc1[C@@H](F)[C@](C)(F)c1cccc(N2Cc3c(cc(CN4CC(C)(F)C4)cc3C(F)(F)F)C2=O)c1 [Compound 34]
Result: NO

Ask: Report whether reported IC50 is lower than 100 nM (strictly) for Cn1cnnc1[C@@H](F)C1(c2cccc(N3Cc4c(cc(CN5CC6(C5)CC6(F)F)cc4C(F)(F)F)C3=O)c2)COC1 [Compound 154]
Result: NO

Ask: Report whether reported IC50 is lower than 100 nM (strictly) for Cn1cnnc1[C@@H](F)C1(c2cccc(N3Cc4c(cc(CN5CC(S(C)(=O)=O)C5)cc4C(F)(F)F)C3=O)c2)COC1 [Compound 164]
Result: NO

Ask: Report whether reported IC50 is lower than 100 nM (strictly) for Cn1cnnc1[C@@H](F)C1(c2cccc(N3Cc4c(cc(CN5CC(C)(CO)C5)cc4C(F)(F)F)C3=O)c2)CC1 [Compound 125]
Result: NO

Ask: Report whether reported IC50 is lower than 100 nM (strictly) for Cn1cnnc1[C@H](F)C1(c2cccc(N3Cc4c(cc(CNC5CCC5)cc4C(F)(F)F)C3=O)c2)COC1 [Compound 227, formate]
Result: YES

Ask: Report whether reported IC50 is lower than 100 nM (strictly) for Cn1cnnc1CC1(c2cc(C3CC3)cc(N3Cc4c(cc(CNC5(C)CCC5)cc4C(F)(F)F)C3=O)c2)COC1 [Compound 472]
Result: YES

Ask: Report whether reported IC50 is lower than 100 nM (strictly) for CN(C)C(=O)CNc1cc(C2(Cc3nncn3C)CCC2)cc(N2Cc3c(cc(CNC4(C)CCC4)cc3C(F)(F)F)C2=O)n1 [Compound 311, formate]
Result: NO

Ask: Report whether reported IC50 is lower than 100 nM (strictly) for Cn1cnnc1[C@H](F)C1(c2cccc(N3Cc4c(cc(Oc5cn[nH]c5)cc4C(F)(F)F)C3=O)c2)COC1 [Compound 116]
Result: NO
